Provide the reported combination Emax of each item.
Tested on: KP-3 (Pancreatic Carcinoma)
Experiment: combination Emax (second highest fraction inhibited in the dose matrix, 72 h); higher = more inhibition; extreme values may be limits of the assay
Answers are plain numbers.

Examples from the recorded data:
CC(=O)c1c(C)c2cnc(Nc3ccc(N4CCNCC4)cn3)nc2n(C2CCCC2)c1=O [Palbociclib] + CC1(C)CCC(CN2CCN(c3ccc(C(=O)NS(=O)(=O)c4ccc(NCC5CCOCC5)c([N+](=O)[O-])c4)c(Oc4cnc5[nH]ccc5c4)c3)CC2)=C(c2ccc(Cl)cc2)C1 [Venetoclax] (first compound max 10 µM, 7x7, partner max 1 µM) | 0.0792
Cn1cnc2c(F)c(Nc3ccc(Br)cc3Cl)c(C(=O)NOCCO)cc21 [Selumetinib] + CC(C)n1c(=O)n(C)c2cnc3cc(F)c(-c4ccc(OCCCN5CCCCC5)nc4)cc3c21 [AZD1390] (first compound max 10 µM, 7x7, partner max 0.3 µM) | 0.15
Cn1cnc2c(F)c(Nc3ccc(Br)cc3Cl)c(C(=O)NOCCO)cc21 [Selumetinib] + C[C@@H]1COCCN1C2=NC(=NC(=C2)C3(CC3)[S@](=N)(=O)C)C4=C5C=CNC5=NC=C4 [AZD6738] (first compound max 10 µM, 7x7, partner max 10 µM) | 0.156

Please supply combination Emax for each of the following items, keeping them in order.
1. Cc1c2c(nn1C)CSCc1cc(n(C)n1)CSc1cc(c3ccccc3c1)OCCCc1c(C(=O)O)n(C)c3c-2c(Cl)ccc13 [AZD5991] + CC(=O)O[C@H]1C(=O)[C@@]2(C)[C@H]([C@H](OC(=O)c3ccccc3)[C@]3(O)C[C@H](OC(=O)[C@H](O)[C@@H](NC(=O)c4ccccc4)c4ccccc4)C(C)=C1C3(C)C)[C@]1(OC(C)=O)CO[C@@H]1C[C@@H]2O [Paclitaxel] (first compound max 1 µM, 7x7, partner max 3 µM)
2. CN(CCO)CC[C@H](CSc1ccccc1)Nc1ccc(S(=O)(=O)NC(=O)c2ccc(N3CCC([C@@H](O)c4ccccc4-c4ccc(Cl)cc4)CC3)cc2)cc1S(=O)(=O)C(F)(F)F [AZD4320] + Cn1cnc2c(F)c(Nc3ccc(Br)cc3Cl)c(C(=O)NOCCO)cc21 [Selumetinib] (first compound max 1 µM, 7x7, partner max 3 µM)
3. Cc1c2c(nn1C)CSCc1cc(n(C)n1)CSc1cc(c3ccccc3c1)OCCCc1c(C(=O)O)n(C)c3c-2c(Cl)ccc13 [AZD5991] + C=CCn1c(=O)c2cnc(Nc3ccc(N4CCN(C)CC4)cc3)nc2n1-c1cccc(C(C)(C)O)n1 [AZD1775] (first compound max 1 µM, partner max 1 µM)

0.365
0.198
0.269

* * *

System: KYSE-270 (Esophageal Squamous Cell Carcinoma);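 note: after 72 h of two-drug dosing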
Experiment: Bliss excess, mean over the matrix (fraction); higher = more synergy
Label Met when Bliss excess >= -0.03; otherwise Not met.

Sample answers from the record:
C=CCn1c(=O)c2cnc(Nc3ccc(N4CCN(C)CC4)cc3)nc2n1-c1cccc(C(C)(C)O)n1 [AZD1775] + C[C@@H]1COCCN1C2=NC(=NC(=C2)C3(CC3)[S@](=N)(=O)C)C4=C5C=CNC5=NC=C4 [AZD6738] (first compound max 1 µM, partner max 10 µM) | Met
Cc1c2c(nn1C)CSCc1cc(n(C)n1)CSc1cc(c3ccccc3c1)OCCCc1c(C(=O)O)n(C)c3c-2c(Cl)ccc13 [AZD5991] + Nc1ccn([C@@H]2O[C@H](CO)[C@@H](O)C2(F)F)c(=O)n1 [Gemcitabine] (first compound max 1 µM, 7x7, partner max 0.3 µM) | Met
CC1(C)CCC(CN2CCN(c3ccc(C(=O)NS(=O)(=O)c4ccc(NCC5CCOCC5)c([N+](=O)[O-])c4)c(Oc4cnc5[nH]ccc5c4)c3)CC2)=C(c2ccc(Cl)cc2)C1 [Venetoclax] + CS(=O)(=O)CCNCc1ccc(-c2ccc3ncnc(Nc4ccc(OCc5cccc(F)c5)c(Cl)c4)c3c2)o1 [Lapatinib] (first compound max 1 µM, 7x7, partner max 10 µM) | Met
C[C@@H](c1ccc2nccn2c1)n1nnc2ncc(-c3cnn(C)c3)nc21 [Savolitinib] + Cc1c2c(nn1C)CSCc1cc(n(C)n1)CSc1cc(c3ccccc3c1)OCCCc1c(C(=O)O)n(C)c3c-2c(Cl)ccc13 [AZD5991] (first compound max 1 µM, 7x7, partner max 1 µM) | Met
Cc1c2c(nn1C)CSCc1cc(n(C)n1)CSc1cc(c3ccccc3c1)OCCCc1c(C(=O)O)n(C)c3c-2c(Cl)ccc13 [AZD5991] + C=CCn1c(=O)c2cnc(Nc3ccc(N4CCN(C)CC4)cc3)nc2n1-c1cccc(C(C)(C)O)n1 [AZD1775] (first compound max 1 µM, partner max 1 µM) | Met
CN(CCO)CC[C@H](CSc1ccccc1)Nc1ccc(S(=O)(=O)NC(=O)c2ccc(N3CCC([C@@H](O)c4ccccc4-c4ccc(Cl)cc4)CC3)cc2)cc1S(=O)(=O)C(F)(F)F [AZD4320] + CS(=O)(=O)CCNCc1ccc(-c2ccc3ncnc(Nc4ccc(OCc5cccc(F)c5)c(Cl)c4)c3c2)o1 [Lapatinib] (first compound max 1 µM, 7x7, partner max 10 µM) | Met
CC1(C)CCC(CN2CCN(c3ccc(C(=O)NS(=O)(=O)c4ccc(NCC5CCOCC5)c([N+](=O)[O-])c4)c(Oc4cnc5[nH]ccc5c4)c3)CC2)=C(c2ccc(Cl)cc2)C1 [Venetoclax] + COc1cc(Nc2ncc3c(n2)-c2ccc(Cl)cc2C(c2c(F)cccc2OC)=NC3)ccc1C(=O)O [Alisertib] (first compound max 1 µM, 7x7, partner max 10 µM) | Met
CC(=O)c1c(C)c2cnc(Nc3ccc(N4CCNCC4)cn3)nc2n(C2CCCC2)c1=O [Palbociclib] + CC1(C)CCC(CN2CCN(c3ccc(C(=O)NS(=O)(=O)c4ccc(NCC5CCOCC5)c([N+](=O)[O-])c4)c(Oc4cnc5[nH]ccc5c4)c3)CC2)=C(c2ccc(Cl)cc2)C1 [Venetoclax] (first compound max 10 µM, 7x7, partner max 1 µM) | Not met

Dear colleague, could you confirm whether Cn1cnc2c(F)c(Nc3ccc(Br)cc3Cl)c(C(=O)NOCCO)cc21 [Selumetinib] + CC(C)n1c(=O)n(C)c2cnc3cc(F)c(-c4ccc(OCCCN5CCCCC5)nc4)cc3c21 [AZD1390] (first compound max 10 µM, 7x7, partner max 0.3 µM) has Bliss excess at or above -0.03? Not met

Can CN(CCO)CC[C@H](CSc1ccccc1)Nc1ccc(S(=O)(=O)NC(=O)c2ccc(N3CCC([C@@H](O)c4ccccc4-c4ccc(Cl)cc4)CC3)cc2)cc1S(=O)(=O)C(F)(F)F [AZD4320] + CCN(CCO)CCCOc1ccc2c(Nc3cc(CC(=O)Nc4cccc(F)c4)[nH]n3)ncnc2c1 [AZD2811] (first compound max 1 µM, 7x7, partner max 1 µM) be said to have Bliss excess at or above -0.03? Met

Decide: Bliss excess of Cc1nc(Nc2ncc(C(=O)Nc3c(C)cccc3Cl)s2)cc(N2CCN(CCO)CC2)n1 [Dasatinib] + CC(=O)Nc1cccc(-n2c(=O)n(C3CC3)c(=O)c3c(Nc4ccc(I)cc4F)n(C)c(=O)c(C)c32)c1 [Trametinib] (first compound max 2 µM, 7x7, partner max 1 µM) >= -0.03? Met

Could you tell me if the measured Bliss excess of COc1cccc(OCCCN)c1-c1cc(Nc2cnc(C#N)cn2)n[nH]1 [Prexasertib] + Cc1cc2ncnn2cc1Nc1ncc2c(n1)n(C1CCOCC1)c(=O)n2C [AZD7648] (first compound max 1 µM, 7x7, partner max 10 µM) reaches -0.03 or more? Not met

src = the supplement of paper PMC11061612
